# Method: Tmax in Sprague-Dawley rat at 10 mg/kg, po by LC-MS/MS analysis
# Type: ADME, organism-based
# Condition details: in vivo
Property name: Tmax (min)
One number for each entry, in min.

Value lookup for Tmax; key = Cc1c(COc2cc(OCc3cccc(C#N)c3)c(CNC(C)(C)C(=O)O)cc2Cl)cccc1-c1ccccc1
36

---

# Experimental system: Programmed cell death protein 1/Programmed cell death 1 ligand 1 (Homo sapiens, UniProt Q9NZQ7)
# Sequence (Q15116 whole entry): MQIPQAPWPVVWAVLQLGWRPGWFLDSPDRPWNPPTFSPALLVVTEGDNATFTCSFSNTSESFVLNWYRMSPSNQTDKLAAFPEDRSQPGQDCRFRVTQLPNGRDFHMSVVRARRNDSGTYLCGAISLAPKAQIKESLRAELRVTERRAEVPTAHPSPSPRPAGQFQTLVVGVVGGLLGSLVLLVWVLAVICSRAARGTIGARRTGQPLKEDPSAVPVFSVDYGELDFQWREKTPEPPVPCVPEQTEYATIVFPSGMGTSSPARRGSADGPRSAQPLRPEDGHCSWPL
# Sequence (Q9NZQ7 whole entry): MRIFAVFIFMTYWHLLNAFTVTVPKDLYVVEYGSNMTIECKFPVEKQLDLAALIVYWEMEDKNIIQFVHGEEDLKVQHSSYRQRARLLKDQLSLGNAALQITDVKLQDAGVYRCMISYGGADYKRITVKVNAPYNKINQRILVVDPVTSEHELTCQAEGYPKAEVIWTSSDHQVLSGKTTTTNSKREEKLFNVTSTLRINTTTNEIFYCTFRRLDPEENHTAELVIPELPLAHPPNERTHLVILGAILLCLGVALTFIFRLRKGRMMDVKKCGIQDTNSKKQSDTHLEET
# Method: Inhibition of human PD1/PDL1 protein-protein interaction by HTRF assay
# Assay type: protein-complex assay
pIC50: −log10 of the molar value.
Would you kindly list pIC50 for each of these molecules?

Take a look at these entries with their results.
CCN1CCN(Cc2cc(Cl)c(OCc3cccc(-c4ccc5c(c4)OCCO5)c3C)cc2OCc2cccc(C#N)c2)CC1 ... 6.15
Cc1c(COc2cc(OCc3cccc(C#N)c3)c(/C=N/C(CS)C(=O)O)cc2Cl)cccc1-c1ccccc1 (stereo unspecified) ... < 7.00
Cc1c(COc2cc(OCc3cccc(C#N)c3)c(CN3CCCCC3C(=O)O)cc2Cl)cccc1-c1ccncc1 (stereo unspecified) ... < 7.00
Cc1c(COc2cc(OCc3cccc(C#N)c3)c(CN3CCC(O)C3)cc2Cl)cccc1-c1ccccc1 (stereo unspecified) ... 7.00 to 8.00
Cc1c(COc2cc(OCc3cccc(C#N)c3)c(CN3C[C@@H](O)C[C@@H]3CO)cc2Cl)cccc1-c1ccccc1 ... 7.00 to 8.00

Give pIC50 for each listed item.
1. Cc1c(COc2cc(OCc3cccc(C#N)c3)c(CN3CCNCC3)cc2Cl)cccc1-c1ccc2c(c1)OCCO2
2. c1cc2c(cc1[C@H]1OC[C@H]3[C@@H]1CO[C@@H]3c1ccc3c(c1)OCO3)OCO2
3. Cc1c(COc2cc(OCc3cccc(C#N)c3)c(CNC(C)(C)C(=O)O)cc2Cl)cccc1-c1ccccc1
4. Cc1c(COc2cc(OCc3cccc(C#N)c3)c(CN3CCCC[C@H]3C(=O)O)cc2Cl)cccc1-c1cccnc1
5. Cc1c(COc2ccc3cc(CNC(C)(C)C(=O)O)ccc3c2)cccc1-c1ccccc1

6.63
< 4.00
7.90
< 7.00
< 5.00
